target: Androgen Receptor (AR) (Homo sapiens, UniProt P10275, T878A); construct: cell based immuno-fluorescence assay using the LNCaP prostate epithelial cell line; endogenous in cells; host or cells: LNCaP clone FGC (ATCC CRL-1740); test: LNCaP Androgen Receptor Down-regulation Cell Assay (immunofluorescence end point); assay type: cell-based; details: LNCaP prostate carcinoma cells, compound incubation 20-22 hours, 50% reduction of the AR signal; read-out: Androgen Receptor Down-regulation Assay (a) IC50/μM

{"columns": ["Molecule", "Sign Qualifier", "DC50, µM"],
 "data": [
  ["Fc1cccc(CN2CCN(c3ccc4nnc(C(F)(F)F)n4n3)CC2)c1", ">", 1.3],
  ["N#Cc1cccc(CN2CCN(c3ccc4nnc(C(F)(F)F)n4n3)CC(F)(F)C2)c1", "=", 0.78],
  ["FC(F)(F)c1nnc2ccc(N3CCC(c4cccnc4)CC3)nn12", "=", 3.2],
  ["Fc1cc(CN2CCN(c3ccc4nnc(C(F)F)n4n3)CC2)cc(F)c1F", "=", 3.8],
  ["CN1CCN(CCCOc2ccc(C3CCN(c4ccc5nnc(C(F)(F)F)n5n4)CC3)cc2)CC1", "=", 1.1],
  ["O=C(CN1CCOCC1)Nc1cccc(C2CCN(c3ccc4nnc(C(F)(F)F)n4n3)CC2)c1", "=", 0.81],
  ["CC1CN(Cc2ccccc2)CCN1c1ccc2nnc(C(F)(F)Cl)n2n1 (stereo not shown)", "=", 0.57],
  ["O=C(NCCN1CCCC1)c1ccc(C2CCN(c3ccc4nnc(C(F)(F)F)n4n3)CC2)cc1", "=", 1.1],
  ["CC(C)Oc1ccc(CN2CCN(c3ccc4nnc(C(F)(F)F)n4n3)CC2)cc1", "=", 2.5],
  ["Fc1ccc(CN2CCN(c3ccc4nnc(C(F)F)n4n3)CC2)c(F)c1", "=", 6.3],
  ["COc1ccncc1CN1CC2CN(c3ccc4nnc(C(F)(F)F)n4n3)CC2C1 (stereo not shown)", "=", 7],
  ["CN1CCN(C(=O)c2ccc(N3CCN(c4ccc5nnc(C(F)(F)F)n5n4)CC3)cc2)CC1", "=", 9.6],
  ["COc1cccc(OC2CCN(c3ccc4nnc(C(F)(F)F)n4n3)CC2)c1", "=", 0.67],
  ["COc1cccc(C2(O)CCN(c3ccc4nnc(C(F)(F)F)n4n3)CC2)c1", "=", 2.6],
  ["O=C(Nc1ccc(F)cc1)N1CC2CN(c3ccc4nnc(C(F)(F)F)n4n3)CC2C1 (stereo not shown)", "=", 4.5],
  ["N#Cc1ccccc1C1(O)CCN(c2ccc3nnc(C(F)(F)F)n3n2)CC1", "=", 4.1],
  ["OC1(c2cccc(F)c2)CCN(c2ccc3nnc(C(F)(F)F)n3n2)CC1", "=", 3.2],
  ["FC(F)(F)c1cnc(N2CCCN(c3ccc4nnc(C(F)(F)Cl)n4n3)CC2)c(Cl)c1", "=", 1.9],
  ["FC(F)(F)c1nnc2ccc(N3CCN(Cc4c[nH]c5cnccc45)CC3)nn12", "=", 6.3],
  ["C[C@H]1CN(Cc2cccnc2)CCN1c1ccc2nnc(C(F)(F)F)n2n1", "=", 7.2],
  ["Fc1ccc(OCC2CCN(c3ccc4nnc(C(F)(F)F)n4n3)CC2)cc1", "=", 0.98],
  ["COCCN(C)C(=O)c1ccc(N2CCN(c3ccc4nnc(C(F)(F)F)n4n3)CC2)cc1", "=", 6.3],
  ["N#Cc1ccc(CCN2CCN(c3ccc4nnc(C(F)(F)F)n4n3)CC2)cc1", "=", 1.9],
  ["CN(CCN1CCCC1=O)C(=O)c1ccc(C2CCN(c3ccc4nnc(C(F)(F)F)n4n3)CC2)cc1", "=", 2.1],
  ["O=C(c1ccc2[nH]cc(C3CCN(c4ccc5nnc(C(F)(F)F)n5n4)CC3)c2c1)N1CC[C@H](O)C1", ">", 19]
]}

* * *

Target: Androgen Receptor (AR) (Homo sapiens, UniProt P10275, T878A)
Construct: cell based immuno-fluorescence assay using the LNCaP prostate epithelial cell line; endogenous in cells; host or cells: LNCaP clone FGC (ATCC CRL-1740)
Sequence (P10275 1-920 T878A): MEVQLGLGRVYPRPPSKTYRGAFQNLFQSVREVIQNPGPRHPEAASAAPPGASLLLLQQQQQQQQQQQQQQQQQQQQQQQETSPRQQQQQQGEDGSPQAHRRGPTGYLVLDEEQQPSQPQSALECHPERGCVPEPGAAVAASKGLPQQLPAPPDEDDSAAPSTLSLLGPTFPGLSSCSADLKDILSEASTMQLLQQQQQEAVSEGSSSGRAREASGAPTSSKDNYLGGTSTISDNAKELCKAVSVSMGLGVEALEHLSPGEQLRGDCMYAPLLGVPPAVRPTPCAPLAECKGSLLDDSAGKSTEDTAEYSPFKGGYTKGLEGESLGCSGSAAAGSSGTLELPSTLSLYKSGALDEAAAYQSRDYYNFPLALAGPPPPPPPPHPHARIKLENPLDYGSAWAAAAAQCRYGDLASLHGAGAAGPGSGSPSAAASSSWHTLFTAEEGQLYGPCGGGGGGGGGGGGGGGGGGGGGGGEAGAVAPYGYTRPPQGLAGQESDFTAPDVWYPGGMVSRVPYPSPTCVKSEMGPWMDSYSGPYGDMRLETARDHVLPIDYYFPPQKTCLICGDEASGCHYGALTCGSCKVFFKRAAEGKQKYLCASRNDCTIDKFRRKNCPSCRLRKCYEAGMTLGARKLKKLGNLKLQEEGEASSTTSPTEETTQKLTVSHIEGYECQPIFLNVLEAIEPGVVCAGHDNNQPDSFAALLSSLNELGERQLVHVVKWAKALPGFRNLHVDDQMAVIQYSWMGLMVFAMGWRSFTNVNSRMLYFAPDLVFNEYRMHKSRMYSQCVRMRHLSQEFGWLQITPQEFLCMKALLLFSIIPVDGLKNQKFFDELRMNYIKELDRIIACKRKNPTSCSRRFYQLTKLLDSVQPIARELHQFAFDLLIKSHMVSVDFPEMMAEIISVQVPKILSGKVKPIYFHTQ
Experiment: LNCaP Androgen Receptor Down-regulation Cell Assay (immunofluorescence end point)
Assay type: cell-based
Settings: LNCaP prostate carcinoma cells, compound incubation 20-22 hours, 50% reduction of the AR signal; read-out: Androgen Receptor Down-regulation Assay (a) IC50/μM
I'd appreciate it if you could label each record using DC50 and these ranges: low bin (below 2 µM), mid bin (2 µM to below 4 µM), high bin (4 µM or more)

{"columns": ["Molecule", "Label Value"],
 "data": [
  ["C[C@H]1CN(c2ccc3nnc(C(F)(F)F)n3n2)CCN1Cc1ccc(F)c(F)c1", "mid bin"],
  ["COc1ccc(C(c2ccccc2)N2CCN(c3ccc4nnc(C(F)(F)F)n4n3)CC2)cc1 (stereo not drawn)", "low bin"],
  ["O=C(c1ccc(N2CCN(c3ccc4nnc(C(F)(F)F)n4n3)CC2)cc1)N1CC[C@@H](O)C1", "high bin"],
  ["CN(Cc1ccc(F)c(C#N)c1)C1CCN(c2ccc3nnc(C(F)(F)F)n3n2)CC1", "mid bin"],
  ["CC1CN(c2ccc3nnc(C(F)(F)F)n3n2)C(C)CN1Cc1ccc(F)c(F)c1 (stereo not drawn)", "mid bin"],
  ["COc1cccc(O[C@@H]2CCN(c3ccc4nnc(C(F)(F)F)n4n3)C2)c1", "mid bin"],
  ["CN1CCN(CCCC(=O)Nc2ccc(C3CCN(c4ccc5nnc(C(F)(F)F)n5n4)CC3)cc2)CC1", "low bin"],
  ["COc1ccc(CN2CCN(c3ccc4nnc(C(F)(F)F)n4n3)CC2)cc1F", "low bin"],
  ["FC(F)(F)c1nnc2ccc(N3CCC(c4ccc(OCc5cnco5)cc4)CC3)nn12", "mid bin"],
  ["FC(F)(F)c1nnc2ccc(N3CCN(Cc4c[nH]c5ccncc45)CC3)nn12", "high bin"],
  ["FC(F)(F)c1nnc2ccc(N3CCN(CCc4ccc(Cl)cc4)CC3)nn12", "mid bin"],
  ["C[C@@H]1CN(Cc2cccnc2)CCN1c1ccc2nnc(C(F)(F)F)n2n1", "high bin"],
  ["Cc1cccc(CN2CCCN(c3ccc4nnc(C(F)(F)F)n4n3)CC2)c1", "low bin"],
  ["CSc1nnc2ccc(N3CCN(C(c4ccccc4)c4ccccc4)CC3)nn12", "low bin"],
  ["C[C@@H]1CN(Cc2ccc(C#N)cc2)CCN1c1ccc2nnc(C(F)(F)F)n2n1", "low bin"],
  ["Cc1ccc(CN2CCN(c3ccc4nnc(C(F)(F)F)n4n3)CC2)cn1", "high bin"],
  ["C[C@@H]1CN(Cc2cc(F)cc(F)c2)CCN1c1ccc2nnc(C(F)(F)F)n2n1", "low bin"],
  ["FC(F)(F)c1nnc2ccc(N3CCC(COc4cccnc4)CC3)nn12", "high bin"],
  ["Cn1c(CN2CCN(c3ccc4nnc(C(F)(F)F)n4n3)CC2)nc2ccccc21", "high bin"],
  ["FC(F)(F)c1nnc2ccc(N3CCN(Cc4csc5ccccc45)CC3)nn12", "low bin"],
  ["FC(F)c1nnc2ccc(N3CCN(Cc4cccc(Cl)c4)CC3)nn12", "low bin"],
  ["CC(C)(C)c1ccc(CN2CCN(c3ccc4nnc(C(F)(F)F)n4n3)CC2)cc1", "high bin"],
  ["CCCC(=O)N1CC2CN(c3ccc4nnc(C(F)(F)F)n4n3)CC2C1 (stereo not drawn)", "high bin"]
]}
